Each entry below lists one item and its recorded EC50 value.
- assay protocol: Lactate dehydrogenase (LDH) release assay
- Type: cell-based
- measurement conditions: LDH: Cytotoxicity assay: EC50

# compound CC(=O)N[C@@H](CCCNC(=N)N)C(=O)N[C@@H](CCCNC(=N)N)C(=O)NCCCCCC(=O)N[C@@H](CCCCN=[N+]=[N-])C(=O)N[C@@H](CC(C)C)C(=O)N[C@H](C(=O)N[C@@H](Cc1ccccc1)C(=O)N[C@]1(C)CCCCCCC=CCCC[C@@](C)(C(=O)N[C@@H](CO)C(=O)N[C@@H](C)C(=O)N[C@@H](C)C(N)=O)NC(=O)[C@H](CC2CCC2)NC(=O)[C@H](CCC(N)=O)NC(=O)[C@H](C)NC(=O)[C@H](Cc2c[nH]c3ccccc23)NC(=O)[C@H](Cc2ccc(O)cc2)NC(=O)[C@H](CCC(=O)O)NC1=O)[C@@H](C)O [MP-007] ; its EC50 = > 50 µM

# compound CC(=O)N[C@H](C(=O)N[C@@H](CO)C(=O)N[C@@H](Cc1ccccc1)C(=O)N[C@]1(C)CCCCCCC=CCCC[C@@](C)(C(N)=O)NC(=O)[C@H](CC(C)C)NC(=O)[C@H](CC(C)C)NC(=O)[C@H](C)NC(=O)[C@H](Cc2c[nH]c3ccccc23)NC(=O)[C@H](Cc2ccc(O)cc2)NC(=O)[C@H](CCC(=O)O)NC1=O)[C@@H](C)O [MP-090] ; its EC50 = > 50.7 µM

# compound CC(=O)N[C@@H](CCCNC(=N)N)C(=O)NCCC(=O)N[C@@H](CCCCN=[N+]=[N-])C(=O)N[C@@H](CC(C)C)C(=O)N[C@H](C(=O)N[C@@H](Cc1ccccc1)C(=O)N[C@]1(C)CCCCCCC=CCCC[C@@](C)(C(=O)N[C@@H](CO)C(=O)N[C@@H](C)C(=O)N[C@@H](C)C(N)=O)NC(=O)[C@H](CC2CCC2)NC(=O)[C@H](CCC(N)=O)NC(=O)[C@H](C)NC(=O)[C@H](Cc2c[nH]c3ccccc23)NC(=O)[C@H](Cc2ccc(O)cc2)NC(=O)[C@H](CCC(=O)O)NC1=O)[C@@H](C)O [MP-4004] ; its EC50 = > 50 µM

---

- assay protocol: Lactate dehydrogenase (LDH) release assay
- Format: cell-based
- measurement conditions: LDH: Cytotoxicity assay: EC50
Positions of bridges follow the written chain, without caps; N, C: chain ends. Non-standard residues stand in square brackets, D forms with d. Residues, ends and D or L forms follow the SMILES beside them. Lys(N3) = [N-]=[N+]=NCCCC[C@H](N)C(=O)O; R8 = C=CCCCCCC[C@@](C)(N)C(=O)O; Cba = N[C@@H](CC1CCC1)C(=O)O; S5 = C=CCCC[C@](C)(N)C(=O)O; βAla = NCCC(=O)O
parameter measured: EC50

Known EC50 results, listed for orientation:
CC(=O)N[C@@H](CCCCN=[N+]=[N-])C(=O)NCCC(=O)N[C@@H](CC(C)C)C(=O)N[C@H](C(=O)N[C@@H](Cc1ccccc1)C(=O)N[C@]1(C)CCCCCCC=CCCC[C@@](C)(C(=O)N[C@@H](CO)C(=O)N[C@@H](C)C(=O)N[C@@H](C)C(N)=O)NC(=O)[C@H](CC2CCC2)NC(=O)[C@H](CCC(N)=O)NC(=O)[C@H](C)NC(=O)[C@H](Cc2c[nH]c3ccccc23)NC(=O)[C@H](Cc2ccc(O)cc2)NC(=O)CNC1=O)[C@@H](C)O [MP-210] (Ac-[Lys(N3)][βAla]LTF[R8]GYWAQ[Cba][S5]SAA-NH2; staple 6-13) | > 50.6 µM
CC(=O)N(C)CC(=O)N(C)CC(=O)N(C)CC(=O)N(C)CC(=O)N[C@@H](CC(C)C)C(=O)N[C@H](C(=O)N[C@@H](Cc1ccccc1)C(=O)N[C@]1(C)CCCCCCC=CCCC[C@@](C)(C(=O)N[C@@H](CO)C(=O)N[C@@H](C)C(=O)N[C@@H](C)C(N)=O)NC(=O)[C@H](CC2CCC2)NC(=O)[C@H](CCC(N)=O)NC(=O)[C@H](C)NC(=O)[C@H](Cc2c[nH]c3ccccc23)NC(=O)[C@H](Cc2ccc(O)cc2)NC(=O)[C@H](CCC(=O)O)NC1=O)[C@@H](C)O | > 50.6 µM
CC(=O)N[C@@H](CC(C)C)C(=O)N[C@H](C(=O)N[C@@H](Cc1ccccc1)C(=O)NC(C)(C)C(=O)N[C@@H](CCC(=O)O)C(=O)N[C@@H](Cc1ccc(O)cc1)C(=O)N[C@@H](Cc1c[nH]c2ccccc12)C(=O)N[C@@H](CCC(N)=O)C(=O)N[C@H](CC(C)C)C(=O)N[C@@H](CC1CCC1)C(=O)NC(C)(C)C(=O)N[C@@H](CO)C(=O)N[C@@H](C)C(=O)N[C@@H](C)C(N)=O)[C@@H](C)O | > 50.6 µM

Next up:
# molecule "CC(=O)N[C@@H](CCCCN=[N+]=[N-])C(=O)NCCC(=O)N[C@@H](CC(C)C)C(=O)N[C@H](C(=O)N[C@@H](Cc1ccccc1)C(=O)N[C@]1(C)CCCCC#CC#CCCC[C@@](C)(C(=O)N[C@@H](CO)C(=O)N[C@@H](C)C(=O)N[C@@H](C)C(N)=O)NC(=O)[C@H](CC2CCC2)NC(=O)[C@H](CCC(N)=O)NC(=O)[C@H](C)NC(=O)[C@H](Cc2c[nH]c3ccccc23)NC(=O)[C@H](Cc2ccc(O)cc2)NC(=O)[C@H](CCC(=O)O)NC1=O)[C@@H](C)O" ; its EC50 = > 50.7 µM

Cited source: paper PMC10786919
